Please go through the items and note down their AC1.4 Human.
target_desc: human NAMPT (Homo sapiens (Human), UniProt P43490)
Sequence (P43490 whole entry): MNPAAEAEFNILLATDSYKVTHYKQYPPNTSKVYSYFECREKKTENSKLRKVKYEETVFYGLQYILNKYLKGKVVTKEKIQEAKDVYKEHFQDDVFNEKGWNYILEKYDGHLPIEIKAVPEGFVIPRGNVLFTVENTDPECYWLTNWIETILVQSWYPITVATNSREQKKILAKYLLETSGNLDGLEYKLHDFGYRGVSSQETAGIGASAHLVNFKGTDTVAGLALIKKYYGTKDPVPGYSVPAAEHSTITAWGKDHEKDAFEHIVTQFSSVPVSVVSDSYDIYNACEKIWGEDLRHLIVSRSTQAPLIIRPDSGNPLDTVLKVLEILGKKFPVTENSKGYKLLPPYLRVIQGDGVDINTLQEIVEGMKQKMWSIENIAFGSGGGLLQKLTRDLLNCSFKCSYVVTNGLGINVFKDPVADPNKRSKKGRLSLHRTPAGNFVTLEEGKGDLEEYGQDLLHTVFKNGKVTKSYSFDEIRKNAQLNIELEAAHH
procedure_details: NMN fluorescence biochemical assay (human recombinant NAMPT enzyme assay)
Counter-ions that a name gives are not always drawn.
Please state the figure in µM; there is no need to write the unit.

Can you look up the measured AC1.4 Human of O=C(Nc1ccc(CC2CC3CCC(C2)N3S(=O)(=O)N2CCC2)cc1)OCc1cnco1 (stereo not shown) for me?
0.13

Can you look up the measured AC1.4 Human of O=C(Nc1ccc(CCC2CCNCC2)cc1)OCc1cnco1 [Compound 252, hydrochloride] for me?
2.60

Can you look up the measured AC1.4 Human of COC(=O)N1CC2CC(C1)C2Cc1ccc(NC(=O)OCc2cnco2)cc1 (stereo not shown) for me?
0.08

Can you look up the measured AC1.4 Human of O=C(Nc1ccc(CC2CC3CCC(C2)N3C(=O)N2CCOCC2)cc1)OCc1cnco1 (stereo not shown) for me?
0.09

Can you look up the measured AC1.4 Human of CS(=O)(=O)N1CCC(Cc2ccc(NC(=O)OCc3ccc(Cl)cc3)cc2)CC1 for me?
0.42

Can you look up the measured AC1.4 Human of COC(=O)N1CC2CCC(C1)C2Cc1ccc(NC(=O)OCc2cnco2)cc1 (stereo not shown) for me?
0.13

Can you look up the measured AC1.4 Human of COc1cc(C(=O)N(C)Cc2ccc(NC(=O)OCc3ccc(Cl)cc3)cc2)n(C)n1 for me?
0.72

Can you look up the measured AC1.4 Human of O=C(Nc1ccc([C@@H]2CCCN(C3COC3)C2)cc1)OCc1cnco1 for me?
0.84

Can you look up the measured AC1.4 Human of CC(=O)N1CC2(CC(c3ccc(NC(=O)OCc4cnco4)cc3F)C2)C1 for me?
0.04

Can you look up the measured AC1.4 Human of CN(C)C(=O)N1CCC(Cc2ccc(NC(=O)OCc3cnco3)cc2)CC1 for me?
0.37

Can you look up the measured AC1.4 Human of CCc1ccc(C(=O)NCc2ccc(NC(=O)OCc3ccc(Cl)cc3)cc2)cn1 for me?
0.66

Can you look up the measured AC1.4 Human of O=C(Nc1ccc(CC(=O)N2CCCCC2)cc1)OCc1ccc(Cl)cc1 for me?
0.91

Can you look up the measured AC1.4 Human of CN(C)S(=O)(=O)N1CCC(Cc2ccc(NC(=O)OCc3ccc(Cl)cc3)cc2)CC1 for me?
0.38

Can you look up the measured AC1.4 Human of O=C(Nc1ccc(CC2CCN(S(=O)(=O)N3CCC3)CC2)cc1)OCc1cnco1 for me?
0.14

Can you look up the measured AC1.4 Human of COC1CCN(C(=O)Cc2ccc(NC(=O)OCc3ccc(Cl)cc3)cc2)CC1 for me?
3.61

Can you look up the measured AC1.4 Human of CC(C)OC(=O)N1CCC(Cc2ccc(NC(=O)OCc3cnco3)cc2)CC1 for me?
0.73

Can you look up the measured AC1.4 Human of COC(=O)N1CCC[C@@H](c2ccc(NC(=O)OCc3cnco3)cc2)C1 for me?
2.58

Can you look up the measured AC1.4 Human of Cc1ccc(Cc2ccc(NC(=O)OCc3ccc(F)cc3)cc2)cn1 for me?
8.67

Can you look up the measured AC1.4 Human of CC(C)c1ccc(C(=O)N[C@@H](C)c2ccc(NC(=O)OCc3ccc(Cl)cc3)cc2)cn1 for me?
1.37

Can you look up the measured AC1.4 Human of O=C(Nc1ccc(CNC(=O)N2CCOCC2)cc1)OCc1ccc(Cl)cc1 for me?
3.14

Can you look up the measured AC1.4 Human of Cc1nocc1C(=O)N(C)Cc1ccc(NC(=O)OCc2ccc(Cl)cc2)cc1 for me?
0.89

Can you look up the measured AC1.4 Human of CCC(=O)N1CCC(c2ccc(NC(=O)OCc3cnco3)cc2)CC1 for me?
0.11

Can you look up the measured AC1.4 Human of O=C(Nc1ccc(CC2CCN(C(=O)C3CCC3)CC2)cc1)OCc1cnco1 for me?
0.24

Can you look up the measured AC1.4 Human of Cc1nnc(Cc2ccc(NC(=O)OCc3ccc(Cl)cc3)cc2)o1 for me?
7.23

Can you look up the measured AC1.4 Human of C[C@H](NC(=O)c1ccncc1)c1ccc(NC(=O)OCc2ccc(Cl)cc2)cc1 for me?
0.85

Can you look up the measured AC1.4 Human of COc1ccc(COC(=O)Nc2ccc(CN3CCC[C@@H]3c3cccnc3)cc2)cc1 for me?
0.03

Can you look up the measured AC1.4 Human of O=C(Nc1ccc(CC2CCN(C(=O)N3CCOCC3)CC2)cc1)OCc1cnco1 for me?
0.13

Can you look up the measured AC1.4 Human of CC(=O)N1CC(OCc2ccc(NC(=O)OCc3ccc(Cl)cc3)cc2)C1 for me?
0.25

Can you look up the measured AC1.4 Human of C[C@H](NC(=O)c1cc(C(F)F)nn1C)c1ccc(NC(=O)OCc2ccc(Cl)cc2)cc1 for me?
2.75

Can you look up the measured AC1.4 Human of O=C(Nc1ccc(C2CCN(C(=O)N3CCC3)CC2)cc1)OCc1cnco1 for me?
0.19

Can you look up the measured AC1.4 Human of O=C(Nc1ccc(CC2CCN(S(=O)(=O)C3CC3)CC2)cc1)OCc1cnco1 for me?
0.24

Can you look up the measured AC1.4 Human of Cc1ccc(CNC(=O)Cc2ccc(NC(=O)OCc3ccc(Cl)cc3)cc2)cn1 for me?
7.41

Can you look up the measured AC1.4 Human of O=C(Nc1ccc(CN2CCN(c3ccccn3)CC2)cc1)OCc1ccc(Cl)cc1 for me?
0.37

Can you look up the measured AC1.4 Human of CN(Cc1ccc(NC(=O)OCc2ccc(Cl)cc2)cc1)C(=O)c1c(F)cncc1F for me?
0.51

---

target_desc: human NAMPT (Homo sapiens (Human), UniProt P43490)
procedure_details: NMN fluorescence biochemical assay (human recombinant NAMPT enzyme assay)
observable: EC50 (µM)
Please state the figure in µM; there is no need to write the unit.

Can you look up the measured EC50 of CS(=O)(=O)N1CC2(CC(c3ccc(NC(=O)OCc4cnco4)cc3F)C2)C1 for me?
10.2

Can you look up the measured EC50 of O=C(Nc1ccc(CC2CC3CCC(C2)N3S(=O)(=O)N2CCC2)cc1)OCc1cnco1 (stereo not drawn) for me?
3.84

Can you look up the measured EC50 of O=C(Nc1ccc(Cc2ccncc2)cc1)OCc1ccc(Cl)cc1 for me?
5.81

Can you look up the measured EC50 of Cc1ccc(Cc2ccc(NC(=O)OCc3ccc(Cl)cc3)cc2)cn1 for me?
20

Can you look up the measured EC50 of CS(=O)(=O)N1CC2CC(C1)C2Cc1ccc(NC(=O)OCc2cnco2)cc1 (stereo not drawn) for me?
2.11

Can you look up the measured EC50 of CN(C)C(=O)N1CCC(Cc2ccc(NC(=O)OCc3ccc(Cl)cc3)cc2)CC1 for me?
1.73

Can you look up the measured EC50 of COc1ccc(COC(=O)Nc2ccc(CN3CCOCC3=O)cc2)cc1 for me?
28

Can you look up the measured EC50 of COCCN1CCC(c2ccc(NC(=O)OCc3cnco3)cc2)CC1 for me?
35.9

Can you look up the measured EC50 of O=C(Nc1ccc(CN2CCN(c3ncccn3)CC2)cc1)OCc1ccc(Cl)cc1 for me?
1.76

Can you look up the measured EC50 of Cc1ncc(C(=O)NCc2ccc(NC(=O)OCc3ccc(Cl)cc3)cc2)o1 for me?
9.11

Can you look up the measured EC50 of CN(Cc1ccc(NC(=O)OCc2ccc(Cl)cc2)cc1)C(=O)N1CCCC1 for me?
4.75

Can you look up the measured EC50 of C[C@H](NC(=O)N1CCCC1)c1ccc(NC(=O)OCc2ccc(Cl)cc2)cc1 for me?
4.31

Can you look up the measured EC50 of CC(C)C(=O)N1CC2(CC(Cc3ccc(NC(=O)OCc4cnco4)cc3F)C2)C1 for me?
7.47

Can you look up the measured EC50 of CN(Cc1ccc(NC(=O)OCc2ccc(Cl)cc2)cc1)C(=O)c1ccnn1C1CCC1 for me?
1.42

Can you look up the measured EC50 of Cc1cnc(C(=O)NCc2ccc(NC(=O)OCc3ccc(Cl)cc3)cc2)cn1 for me?
2.23

Can you look up the measured EC50 of COc1ccc(COC(=O)Nc2ccc(CN3CCN(c4ccccn4)CC3)cc2)cc1 for me?
8.11

Can you look up the measured EC50 of O=C(Nc1ccc(CCC2CCN(C3COC3)CC2)cc1)OCc1cnco1 for me?
41.1

Can you look up the measured EC50 of O=C(Nc1ccc(CC2CCN(C3COC3)CC2)cc1)OCc1cnco1 for me?
29

---

target_desc: human NAMPT (Homo sapiens (Human))
procedure_details: NMN fluorescence biochemical assay (human recombinant NAMPT enzyme assay)
observable: log10 EC50 (log10 of the value in µM)
Friendly reminder: values = log10 of EC50, unit µM.

Can you look up the measured log10 EC50 of Cc1cc(C(=O)NCc2ccc(NC(=O)OCc3ccc(Cl)cc3)cc2)n(C)n1 for me?
0.96

Can you look up the measured log10 EC50 of C[C@H](NC(=O)C1CCC(F)(F)C1)c1ccc(NC(=O)OCc2cnco2)cc1 (some centres unmarked) for me?
1.37

Can you look up the measured log10 EC50 of COc1ccc(COC(=O)Nc2ccc(CN3CC(S(C)(=O)=O)C3)cc2)cc1 for me?
1.71

Can you look up the measured log10 EC50 of Cc1ccc(C(=O)NCc2ccc(NC(=O)OCc3ccc(OC(F)F)cc3)cc2)cn1 for me?
1.10

Can you look up the measured log10 EC50 of CN1CCN(C(=O)Cc2ccc(NC(=O)OCc3ccc(Cl)cc3)cc2)C2CC21 (centres unmarked) for me?
1.17

Can you look up the measured log10 EC50 of CC(C)Cn1nccc1C(=O)NCc1ccc(NC(=O)OCc2ccc(Cl)cc2)cc1 for me?
1.24

Can you look up the measured log10 EC50 of Cc1coc(C(=O)NCc2ccc(NC(=O)OCc3ccc(Cl)cc3)cc2)n1 for me?
1.26

Can you look up the measured log10 EC50 of O=C(Nc1ccc(CN2CC3CC3C2=O)cc1)OCc1ccc(Cl)cc1 (centres unmarked) for me?
1.18

Can you look up the measured log10 EC50 of CC(C)(O)CN1CCN(Cc2ccc(NC(=O)OCc3ccc(Cl)cc3)cc2)CC1 for me?
1.58

Can you look up the measured log10 EC50 of O=C(Nc1ccc(CN2CCOC2=O)cc1)OCc1ccc(Cl)cc1 for me?
1.30

Can you look up the measured log10 EC50 of COC1CCN(C(=O)N[C@@H](C)c2ccc(NC(=O)OCc3ccc(Cl)cc3)cc2)CC1 for me?
0.72

Can you look up the measured log10 EC50 of COc1ccc(COC(=O)Nc2ccc([C@H]3CNC(=O)CN3C)cc2)cc1 for me?
1.59

Can you look up the measured log10 EC50 of CC(C)S(=O)(=O)N1CCC(Cc2ccc(NC(=O)OCc3cnco3)cc2)CC1 for me?
0.49

Can you look up the measured log10 EC50 of CC(C)(C)OC(=O)N1CCC2(CC(Cc3ccc(NC(=O)OCc4cnco4)cc3F)C2)C1 (centres unmarked) for me?
0.97

Can you look up the measured log10 EC50 of Cc1nn(C)c(C(=O)N[C@@H](C)c2ccc(NC(=O)OCc3ccc(Cl)cc3)cc2)c1C for me?
-0.47

Can you look up the measured log10 EC50 of O=C(Nc1ccc(CC(=O)N2CCN(C3COC3)CC2)cc1)OCc1ccc(Cl)cc1 for me?
1.43

Can you look up the measured log10 EC50 of O=C1CN(C(=O)C(F)(F)c2ccc(NC(=O)OCc3ccc(Cl)cc3)cc2)CCN1 for me?
1.59
